- Assay Procedure: Compound toxicity by ATPLite (total ATP levels)
- Type: cell-based
- Test Settings: human; three days after compound addition; 50% reduction of total ATP; numeric bounds
Value Type: CC50 at 3 days

- Smiles Representation: "CC(C)(O)CNC(=O)C[C@]1(O)C2CCC1C[C@@H](S(=O)(=O)c1cc(C(=O)Nc3ccc(F)c(F)c3)ccc1Cl)C2"
  Value Type: "CC50 at 3 days"
  Result: "> 12.5 µM"

Item under review: O=C(NC[C@@]1(O)C2CC[C@H]1C[C@H](S(=O)(=O)c1cc(C(=O)Nc3cc(F)c(F)c(F)c3)ccc1Cl)C2)C1=CCCC1 . Reported CC50 at 3 days?
> 6.25 µM

Entry O=C(Nc1cc(F)c(F)c(F)c1)c1ccc(Cl)c(S(=O)(=O)[C@H]2CC3CCC(C2)[C@]3(O)CC(=O)N2CC(O)C2)c1 please
> 6.25 µM

Entry O=C(Nc1cc(F)c(F)c(F)c1)c1ccc(Cl)c(S(=O)(=O)[C@H]2CC3CCC(C2)[C@]3(O)COCCO)c1 please
> 12.5 µM

Entry O=C(C[C@]1(O)C2CCC1C[C@@H](S(=O)(=O)c1cc(C(=O)Nc3cc(F)c(F)c(F)c3)ccc1Cl)C2)N[C@H]1CCOC1 please
> 3 µM

Entry O=C(C[C@]1(O)C2CCC1C[C@@H](S(=O)(=O)c1cc(C(=O)Nc3cc(F)c(F)c(F)c3)ccc1Cl)C2)NC1(CO)CC1 please
> 6.25 µM

###

- Assay Procedure: Compound toxicity by ATPLite (total ATP levels)
- Assay type: cell-based
- Test Settings: human; three days after compound addition; 50% reduction of total ATP; numeric bounds
Value Type: CC50 at 3 days

Known results for compounds:
- Compound: "[N-]=[N+]=NCC(O)[C@]1(O)C2CCC1C[C@@H](S(=O)(=O)c1cc(C(=O)Nc3cc(F)c(F)c(F)c3)ccc1Cl)C2 (mixture of isomers)"
  Value Type: "CC50 at 3 days"
  Result: "> 6.25 µM"
- Compound: "O=C(C[C@]1(O)C2CCC1C[C@@H](S(=O)(=O)c1cc(C(=O)Nc3ccc(F)c(F)c3)ccc1Cl)C2)NC1CC(O)C1 (stereo partly drawn)"
  Value Type: "CC50 at 3 days"
  Result: "> 12.5 µM"

Item under review: O=C(Nc1cc(F)c(F)c(F)c1)c1ccc(Cl)c(S(=O)(=O)[C@H]2CC3CCC(C2)[C@]3(O)CNC(=O)C2CCOCC2)c1 . Reported CC50 at 3 days?
> 6.25 µM

###

- Assay Procedure: Compound toxicity by ATPLite (total ATP levels)
- Assay type: cell-based
- Test Settings: human; three days after compound addition; 50% reduction of total ATP; numeric bounds
The entries below come with measured CC50 at 3 days values attached.

- Compound: "C=CCNC(=O)C[C@]1(O)C2CCC1C[C@@H](S(=O)(=O)c1cc(C(=O)Nc3cc(F)c(F)c(F)c3)ccc1Cl)C2"
  CC50 at 3 days: "> 12.5 µM"
- Compound: "O=C(Nc1cc(F)c(F)c(F)c1)c1ccc(Cl)c(S(=O)(=O)[C@H]2CC3CCC(C2)[C@]3(O)CNC(=O)c2ncco2)c1"
  CC50 at 3 days: "> 6.25 µM"
- Compound: "C[C@@H](O)COC[C@]1(O)C2CCC1C[C@@H](S(=O)(=O)c1cc(C(=O)Nc3cc(F)c(F)c(F)c3)ccc1Cl)C2 (single isomer, unassigned)"
  CC50 at 3 days: "> 12.5 µM"
- Compound: "O=C(C[C@]1(O)C2CCC1C[C@@H](S(=O)(=O)c1cc(C(=O)Nc3cc(F)c(F)c(F)c3)ccc1Cl)C2)N[C@H]1C[C@H](O)C1"
  CC50 at 3 days: "> 3 µM"

Let us examine a further case.
Item under review: C[C@H](O)COC[C@]1(O)C2CCC1C[C@@H](S(=O)(=O)c1cc(C(=O)Nc3cc(F)c(F)c(F)c3)ccc1Cl)C2 . Reported CC50 at 3 days?
> 12.5 µM

###

The entries below come with measured CC50 at 3 days values attached.
- Assay Procedure: Compound toxicity by ATPLite (total ATP levels)
- Assay type: cell-based
- Test Settings: human; three days after compound addition; 50% reduction of total ATP; numeric bounds
- Method: Methods: HepAD38 cells are maintained as previously reported (Ladner et al, Antimicrob. Agents Chemother. 1997, […], 1715). Briefly, cells are passaged upon attaining confluency in DMEM/F12 media in the presence of 10% FBS, Penn/Strep, 250 μg/mL G418, and 1 ug/ml tetracycline. […] Compound toxicity is evaluated by seeding cells at 15,000 cells/well and treating with compound as described above.

Known results for compounds:
- Compound: "O=C(Nc1cc(F)c(F)c(F)c1)c1ccc(Cl)c(S(=O)(=O)[C@H]2CC3CCC(C2)[C@]3(O)COC(CCO)CCO)c1 [Example 61]"
  CC50 at 3 days: "> 6.25 µM"
- Compound: "O=C(Nc1cc(F)c(F)c(F)c1)c1ccc(Cl)c(S(=O)(=O)[C@H]2CC3CCC(C2)[C@]3(O)CNC(=O)C2CCCOC2)c1 (stereo partly shown) [Example 90]"
  CC50 at 3 days: "> 6.25 µM"
- Compound: "CO[C@@H](C)CNC(=O)C[C@]1(O)C2CCC1C[C@@H](S(=O)(=O)c1cc(C(=O)Nc3ccc(F)c(F)c3)ccc1Cl)C2 [Example 188]"
  CC50 at 3 days: "> 12.5 µM"
- Compound: "C[C@H](O)C(=O)NC[C@]1(O)C2CCC1C[C@@H](S(=O)(=O)c1cc(C(=O)Nc3cc(F)c(F)c(F)c3)ccc1Cl)C2 [Example 13]"
  CC50 at 3 days: "> 6.25 µM"
- Compound: "CC(=O)N(C[C@H](C)O)C[C@]1(O)C2CCC1C[C@@H](S(=O)(=O)c1cc(C(=O)Nc3cc(F)c(F)c(F)c3)ccc1Cl)C2 [Example 125]"
  CC50 at 3 days: "> 6.25 µM"

Item under review: O=C(Nc1ccc(F)c(F)c1)c1ccc(Cl)c(S(=O)(=O)[C@H]2CC3CCC(C2)[C@]3(O)CNC(=O)c2ncco2)c1 [Example 167] . Reported CC50 at 3 days?
> 12.5 µM

Entry CO[C@H](C)CNC(=O)C[C@]1(O)C2CCC1C[C@@H](S(=O)(=O)c1cc(C(=O)Nc3ccc(F)c(F)c3)ccc1Cl)C2 [Example 189] please
> 12.5 µM

Entry C[C@H](O)CNC(=O)C[C@]1(O)C2CCC1C[C@@H](S(=O)(=O)c1cc(C(=O)Nc3ccc(F)c(F)c3)ccc1Cl)C2 [Example 185] please
> 12.5 µM

Entry C[C@@H](O)CNC(=O)C[C@]1(O)C2CCC1C[C@@H](S(=O)(=O)c1cc(C(=O)Nc3cc(F)c(F)c(F)c3)ccc1Cl)C2 [Example 113] please
> 6.25 µM

Entry O=C(C[C@]1(O)C2CCC1C[C@@H](S(=O)(=O)c1cc(C(=O)Nc3cc(F)c(F)c(F)c3)ccc1Cl)C2)N[C@@H]1CCOC1 [Example 73] please
> 6.25 µM

All values here come from patent US11596611B2.
